Biological target: Sodium-dependent serotonin transporter (Homo sapiens, UniProt P31645)
Sequence (P31645 whole entry): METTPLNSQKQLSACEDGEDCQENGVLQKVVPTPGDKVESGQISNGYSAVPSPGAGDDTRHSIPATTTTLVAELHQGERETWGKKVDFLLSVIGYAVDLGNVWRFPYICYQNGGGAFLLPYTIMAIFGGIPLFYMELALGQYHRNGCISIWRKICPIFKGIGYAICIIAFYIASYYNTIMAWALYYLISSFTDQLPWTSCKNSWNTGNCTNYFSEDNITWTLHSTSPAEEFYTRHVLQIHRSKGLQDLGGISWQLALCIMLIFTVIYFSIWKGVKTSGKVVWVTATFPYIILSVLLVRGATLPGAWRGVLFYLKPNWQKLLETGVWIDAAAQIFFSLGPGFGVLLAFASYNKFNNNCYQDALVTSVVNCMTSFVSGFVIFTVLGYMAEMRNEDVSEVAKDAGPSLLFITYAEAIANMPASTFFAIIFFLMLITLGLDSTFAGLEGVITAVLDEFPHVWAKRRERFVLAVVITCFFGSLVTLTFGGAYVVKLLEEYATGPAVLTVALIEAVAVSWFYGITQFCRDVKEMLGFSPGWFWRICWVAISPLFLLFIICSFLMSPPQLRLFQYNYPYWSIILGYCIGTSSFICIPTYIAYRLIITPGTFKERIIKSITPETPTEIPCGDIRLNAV
Experiment: Displacement of [3H]citalopram from human recombinant SERT expressed in HEK293 cells by scintillation proximity assay
measure: Ki (nM)

>>> reportedmeasurement("CC(C)CN(C(=O)c1ccccc1-c1ccccc1)[C@H]1CCNC1")
654
>>> reportedmeasurement("O=C(c1ccccc1C(F)(F)F)N(CC1CC1)[C@H]1CCNC1")
581
>>> reportedmeasurement("CN(C(=O)c1ccccc1Oc1ccccc1)[C@H]1CCNC1")
661

----------
Target: Voltage-gated inwardly rectifying potassium channel KCNH2 (Homo sapiens, UniProt Q12809)
Sequence (Q12809 whole entry): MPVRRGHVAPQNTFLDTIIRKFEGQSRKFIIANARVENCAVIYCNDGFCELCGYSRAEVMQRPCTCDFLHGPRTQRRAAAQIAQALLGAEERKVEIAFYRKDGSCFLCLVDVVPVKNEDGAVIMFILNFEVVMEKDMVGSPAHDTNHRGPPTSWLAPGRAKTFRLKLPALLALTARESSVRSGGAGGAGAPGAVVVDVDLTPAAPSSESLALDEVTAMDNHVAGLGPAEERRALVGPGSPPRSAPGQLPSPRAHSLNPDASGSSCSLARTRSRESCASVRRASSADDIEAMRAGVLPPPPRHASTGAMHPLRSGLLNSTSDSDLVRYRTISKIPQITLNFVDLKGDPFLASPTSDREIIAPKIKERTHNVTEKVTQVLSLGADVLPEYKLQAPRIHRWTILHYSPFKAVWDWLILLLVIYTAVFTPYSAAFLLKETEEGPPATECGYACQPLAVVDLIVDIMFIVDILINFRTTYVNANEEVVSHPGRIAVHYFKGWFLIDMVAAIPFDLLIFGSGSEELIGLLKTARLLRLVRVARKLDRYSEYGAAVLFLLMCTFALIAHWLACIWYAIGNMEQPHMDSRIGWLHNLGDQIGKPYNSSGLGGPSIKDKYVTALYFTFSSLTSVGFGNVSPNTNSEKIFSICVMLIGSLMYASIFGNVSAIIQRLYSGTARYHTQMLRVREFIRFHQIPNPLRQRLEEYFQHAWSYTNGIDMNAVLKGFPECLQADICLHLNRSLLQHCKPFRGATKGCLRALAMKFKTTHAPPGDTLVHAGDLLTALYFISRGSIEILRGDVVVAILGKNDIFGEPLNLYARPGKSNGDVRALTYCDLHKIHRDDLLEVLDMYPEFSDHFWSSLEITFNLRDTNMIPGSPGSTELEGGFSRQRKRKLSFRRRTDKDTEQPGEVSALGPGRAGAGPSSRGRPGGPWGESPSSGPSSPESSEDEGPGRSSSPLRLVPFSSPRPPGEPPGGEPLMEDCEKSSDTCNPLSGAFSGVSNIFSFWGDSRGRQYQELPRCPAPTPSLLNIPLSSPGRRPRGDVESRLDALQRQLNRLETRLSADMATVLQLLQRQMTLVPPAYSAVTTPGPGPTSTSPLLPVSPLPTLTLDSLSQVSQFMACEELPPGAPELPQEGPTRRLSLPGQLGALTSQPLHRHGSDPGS
measure: IC50

Look over these answered cases.
>>> reportedmeasurement("CSc1ccccc1C(=O)N(C1CCC1)[C@H]1CCNC1")
"> 20 µM"
>>> reportedmeasurement("O=C(c1ccccc1C(F)(F)F)N(CC1CCCC1)[C@H]1CCNC1")
"> 13.5 µM"
>>> reportedmeasurement("Cc1ccccc1C(=O)N(CC1CCC1)[C@H]1CCNC1")
"> 20 µM"

In the following, a different molecule is considered.
GET /values?readout=IC50&system=Voltage-gated inwardly rectifying potassium channel KCNH2 (Homo sapiens, UniProt Q12809)&item= CSc1ccccc1C(=O)N(CC1CCC1)[C@H]1CCNC1 > 20 µM

----------
Molecular target: Sodium-dependent dopamine transporter (Homo sapiens, UniProt Q01959)
Sequence (Q01959 whole entry): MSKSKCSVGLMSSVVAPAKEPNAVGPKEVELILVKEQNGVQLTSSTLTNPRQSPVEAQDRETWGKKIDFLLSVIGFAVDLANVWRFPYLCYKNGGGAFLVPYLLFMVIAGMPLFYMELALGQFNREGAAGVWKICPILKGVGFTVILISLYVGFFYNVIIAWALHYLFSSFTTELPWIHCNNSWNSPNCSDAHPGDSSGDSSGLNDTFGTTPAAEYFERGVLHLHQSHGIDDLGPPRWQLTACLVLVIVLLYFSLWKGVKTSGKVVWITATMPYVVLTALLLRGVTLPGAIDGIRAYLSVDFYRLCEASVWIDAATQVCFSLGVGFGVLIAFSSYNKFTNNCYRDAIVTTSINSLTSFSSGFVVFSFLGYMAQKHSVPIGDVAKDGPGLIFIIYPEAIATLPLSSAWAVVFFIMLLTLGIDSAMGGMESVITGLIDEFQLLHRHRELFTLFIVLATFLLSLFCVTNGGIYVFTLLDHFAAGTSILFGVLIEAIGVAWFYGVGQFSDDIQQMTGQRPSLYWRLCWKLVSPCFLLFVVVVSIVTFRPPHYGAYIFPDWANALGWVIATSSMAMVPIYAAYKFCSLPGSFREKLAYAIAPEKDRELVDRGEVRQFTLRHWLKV
Experiment: Displacement of radioligand from human recombinant DAT expressed in HEK293 cells by scintillation proximity assay
measure: Ki (µM)

Would you please look over these solved cases?
>>> reportedmeasurement("CCCN(C(=O)c1ccccc1SC)[C@H]1CCNC1")
3.11
>>> reportedmeasurement("O=C(c1ccccc1Oc1ccccc1)N(c1ccccc1)[C@H]1CCNC1")
4.65
>>> reportedmeasurement("O=C(c1ccccc1C(F)(F)F)N(CC1CCCC1)[C@H]1CCNC1")
2.75
>>> reportedmeasurement("CCSc1ccccc1C(=O)N(CC1CCC1)[C@H]1CCNC1")
3.67

1 = CC(C)c1ccccc1C(=O)N(CC1CCCC1)[C@H]1CCNC1
2 = O=C(c1ccccc1C(F)(F)F)N(CC1CCC1)[C@H]1CCNC1
Thinking about recorded Ki values, which is higher, 1 or 2 ? Please reply using the label of the selected record. 1

----------
Test: Intrinsic clearance in human liver microsomes
Type: ADME, Microsome
Each record here notes measured microsomal CLint.

>>> reportedmeasurement("CSc1ccccc1C(=O)N(CC1CCC1)[C@H]1CCNC1")
"< 7 µL/min/mg"
>>> reportedmeasurement("O=C(c1ccccc1Oc1ccccc1)N(C1CCC1)[C@H]1CCNC1")
"< 7 µL/min/mg"
>>> reportedmeasurement("CCSc1ccccc1C(=O)N(CC1CCC1)[C@H]1CCNC1")
"8 µL/min/mg"

Reported microsomal CLint for O=C(c1ccccc1Oc1ccccc1)N(c1ccccc1)[C@H]1CCNC1 : what is it? < 7 µL/min/mg

Please report the recorded microsomal CLint for O=C(c1ccccc1C(F)(F)F)N(C1CCC1)[C@H]1CCNC1 . < 7 µL/min/mg

Return reported microsomal CLint; argument: CCOc1ccccc1C(=O)N(CC1CCC1)[C@H]1CCNC1 < 7 µL/min/mg

----------
Target: Sodium-dependent dopamine transporter (Homo sapiens, UniProt Q01959)
Experiment: Displacement of radioligand from human recombinant DAT expressed in HEK293 cells by scintillation proximity assay
measure: Ki

Examples with their reported Ki follow.
>>> reportedmeasurement("CC(C)c1ccccc1C(=O)N(CC1CCC1)[C@@H]1CCNC1")
"> 3.16 µM"
>>> reportedmeasurement("CC(C)c1ccccc1C(=O)N(CC1CC1)[C@H]1CCNC1")
"> 10 µM"
>>> reportedmeasurement("O=C(c1ccccc1C(F)(F)F)N(CC1CC1)[C@H]1CCNC1")
"> 10 µM"
>>> reportedmeasurement("CC(C)c1ccccc1C(=O)N(C1CCC1)[C@H]1CCNC1")
"> 10 µM"
>>> reportedmeasurement("CC(C)CN(C(=O)c1ccccc1-c1ccccc1)[C@H]1CCNC1")
"> 10 µM"
>>> reportedmeasurement("CC(C)CN(C(=O)c1ccccc1Oc1ccccc1)[C@H]1CCNC1")
"> 10 µM"
>>> reportedmeasurement("CSc1ccccc1C(=O)N(C1CCCCC1)[C@H]1CCNC1")
"2.95 µM"
>>> reportedmeasurement("O=C(c1ccccc1Oc1ccccc1)N(C1CCC1)[C@H]1CCNC1")
"> 10 µM"
>>> reportedmeasurement("CCc1ccccc1C(=O)N(CC1CCC1)[C@H]1CCNC1")
"2.68 µM"

Tell me reported Ki for O=C(C1CCC1)N(Cc1ccccc1C(F)(F)F)[C@H]1CCNC1 , tested with Sodium-dependent dopamine transporter (Homo sapiens, UniProt Q01959). > 10 µM
